These data points were gathered from patent US20250009742A1.

# experimental.protocol: Cell viability assay (EZ-Cytox), cytotoxicity
# Type: cell-based
# condition: human, HepAD38 cells
Can you tell me CC50 at 65 h for the items I'm about to list?

In: If you can, please state the reported CC50 at 65 h value of COc1ncc(N(Cc2cc(C(F)(F)F)[nH]n2)C(=O)Nc2cccc(C(F)F)c2)cn1 .
Out: > 100 µM

In: If you can, please state the reported CC50 at 65 h value of COc1ncc(N(Cc2cc(C(F)F)[nH]n2)C(=O)Nc2ccc(F)c(C(F)F)n2)cn1 .
Out: 76.4 µM

In: If you can, please state the reported CC50 at 65 h value of COc1ncc(N(Cc2cc(C(F)(F)F)[nH]n2)C(=O)Nc2ccc(C#N)c(F)c2)cn1 .
Out: > 100 µM

In: If you can, please state the reported CC50 at 65 h value of COCCc1c(CN(C(=O)Nc2ccc(F)c(Cl)c2)c2ccc(OC)nc2)n[nH]c1C(F)F .
Out: > 100 µM

----------
# experimental.protocol: Cell viability assay (EZ-Cytox), cytotoxicity
# Assay type: cell-based
# condition: human, HepAD38 cells
assay.readout: CC50 at 65 h

In: If you can, please state the reported CC50 at 65 h value of COc1ncc(N(Cc2cc(C#N)[nH]n2)C(=O)Nc2ccc(C#N)c(C(F)F)c2)cn1 [Example 153] .
Out: > 100 µM

In: If you can, please state the reported CC50 at 65 h value of CS(=O)(=O)Nc1ccc(N(Cc2n[nH]c3c2CCOC3)C(=O)Nc2ccc(F)c(Cl)c2)cc1 [Example 16] .
Out: 97.6 µM

In: If you can, please state the reported CC50 at 65 h value of COc1nc(C)c(N(Cc2cc(C(F)(F)F)[nH]n2)C(=O)Nc2ccc(F)c(Cl)c2)c(C)n1 [Example 30] .
Out: > 100 µM

In: If you can, please state the reported CC50 at 65 h value of COc1ncc(N(Cc2cc(C(F)(F)F)[nH]n2)C(=O)Nc2cc(Cl)c(F)cn2)cn1 [Example 89] .
Out: > 100 µM

----------
# experimental.protocol: Cell viability assay (EZ-Cytox), cytotoxicity
# Type: cell-based
# condition: human, HepAD38 cells, @100 μM, read-out: Cytotoxicity % Livability (@100 μM)
assay.readout: viability at 65 h, 100 µM (%)
State just the number; it will be interpreted in %.

In: If you can, please state the reported viability at 65 h, 100 µM value of N#Cc1cncc(N(Cc2n[nH]c3c2CCCO3)C(=O)Nc2ccc(F)c(Cl)c2)c1 .
Out: 92

In: If you can, please state the reported viability at 65 h, 100 µM value of COc1nc(C)c(N(Cc2cc(C(F)(F)F)[nH]n2)C(=O)Nc2ccc(F)c(Cl)c2)c(C)n1 .
Out: 52.4

In: If you can, please state the reported viability at 65 h, 100 µM value of COc1ncc(N(Cc2cc(C(F)(F)F)[nH]n2)C(=O)Nc2ccc(F)c(Cl)c2)cn1 .
Out: 21.4

In: If you can, please state the reported viability at 65 h, 100 µM value of O=C(Nc1ccc(F)c(Cl)c1)N(Cc1n[nH]c2c1CCC2)c1ccc(O)cc1 .
Out: 7.9

In: If you can, please state the reported viability at 65 h, 100 µM value of COc1ccc(N(Cc2n[nH]c3c2COCC3)C(=O)Nc2ccc(F)c(Cl)c2)cn1 .
Out: 102

In: If you can, please state the reported viability at 65 h, 100 µM value of COc1ccc(N(Cc2n[nH]c3c2CN(C(C)=O)CC3)C(=O)Nc2ccc(F)c(Cl)c2)cc1 .
Out: 96

In: If you can, please state the reported viability at 65 h, 100 µM value of CCOC=Cc1c(CN(C(=O)Nc2ccc(F)c(Cl)c2)c2ccc(OC)nc2)n[nH]c1C(F)(F)F .
Out: 95.1

In: If you can, please state the reported viability at 65 h, 100 µM value of COc1ccc(N(Cc2n[nH]cc2C)C(=O)Nc2ccc(F)c(Cl)c2)cn1 .
Out: 98.2
